- target-or-system: T1, scHLA-B27-mmH (engineered HLA-B*27 ectodomain in-line fusion protein) (human (HLA-B*2705, beta-2 …))
- T1 construct: also called soluble HLA-B*27 fusion protein
- assay-remarks: SPR (Biacore), 25 C, PBS pH 7.2
pKd: −log10 of the molar value.
Reported pKd values are given for each entry in this list.
result-type: pKd

binder	result-type	experimental-value
H4H2534S (antibody, V domains shown) VH: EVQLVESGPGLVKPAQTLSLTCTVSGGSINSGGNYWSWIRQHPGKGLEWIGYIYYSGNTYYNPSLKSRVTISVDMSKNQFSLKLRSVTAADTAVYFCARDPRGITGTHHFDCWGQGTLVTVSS VL: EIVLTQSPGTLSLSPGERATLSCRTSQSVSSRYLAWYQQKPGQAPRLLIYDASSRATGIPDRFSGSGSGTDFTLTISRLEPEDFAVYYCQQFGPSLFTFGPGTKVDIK	pKd	8.67
H4H2718N (antibody, V domains shown) VH: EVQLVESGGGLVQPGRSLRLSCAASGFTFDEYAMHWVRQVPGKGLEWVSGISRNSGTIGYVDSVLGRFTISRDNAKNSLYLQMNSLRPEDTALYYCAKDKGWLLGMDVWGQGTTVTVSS VL: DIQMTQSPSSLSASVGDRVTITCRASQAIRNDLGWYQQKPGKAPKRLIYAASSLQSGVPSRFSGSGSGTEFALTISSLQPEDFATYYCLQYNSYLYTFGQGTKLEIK	pKd	7.01
H4H2530S (antibody, V domains shown) VH: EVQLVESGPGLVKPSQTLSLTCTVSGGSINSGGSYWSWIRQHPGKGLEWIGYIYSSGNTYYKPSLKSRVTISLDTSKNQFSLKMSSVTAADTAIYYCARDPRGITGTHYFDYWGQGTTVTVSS VL: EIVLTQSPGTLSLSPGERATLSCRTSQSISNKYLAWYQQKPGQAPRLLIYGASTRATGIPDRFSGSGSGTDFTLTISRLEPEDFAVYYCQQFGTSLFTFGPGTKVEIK	pKd	9.18
H4H2526P (antibody, V domains shown) VH: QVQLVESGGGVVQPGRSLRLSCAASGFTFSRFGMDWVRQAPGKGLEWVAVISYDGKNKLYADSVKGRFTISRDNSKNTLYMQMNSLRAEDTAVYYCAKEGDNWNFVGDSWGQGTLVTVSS VL: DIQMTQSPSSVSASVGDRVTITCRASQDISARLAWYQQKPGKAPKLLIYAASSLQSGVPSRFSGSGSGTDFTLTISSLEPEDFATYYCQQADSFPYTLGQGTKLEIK	pKd	9.12
H4H2477N2 (antibody, V domains shown) VH: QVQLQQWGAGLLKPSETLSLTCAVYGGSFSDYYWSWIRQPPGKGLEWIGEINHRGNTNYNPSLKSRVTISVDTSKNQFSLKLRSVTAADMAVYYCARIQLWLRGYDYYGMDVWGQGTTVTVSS VL: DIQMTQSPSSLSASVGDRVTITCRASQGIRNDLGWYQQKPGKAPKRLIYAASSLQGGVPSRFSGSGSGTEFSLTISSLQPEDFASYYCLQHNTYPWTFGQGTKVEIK	pKd	7.36
